- System: MELK;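 note: KINOMEscan kinase panel screen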
- protocolConditions: concentration: 1 μM, replicates: in singlicate; n = 1
The entries below are paired with their reported %Inh.
quantityKind: %Inh (%)

COc1cc2c(cc1OC[C@@H](O)CO)ncc1c3ccc(C#N)cc3[nH]c21: 31
Cc1c2ccc(N(C)c3ccnc(Nc4cccc(S(N)(=O)=O)c4)n3)cc2nn1Cc1ccccc1.Cl.Cl: 16
Fc1ccc(-c2ncn(CCCN3CCOCC3)c2-c2cccnc2)cc1: 0
O=C1NC(=O)C(N2CCc3ccccc32)=C1c1cccc(Cl)c1: 0
N#Cc1ccc(-c2cc(-c3c[nH]nc3-c3ccccn3)ccn2)cc1: 0
COc1cc2ncn(-c3cc(OCc4sccc4Cl)c(C(N)=O)s3)c2cc1OC: 0
N#Cc1c(N2CCOCC2)sc(-c2ccn[nH]2)c1-c1ccc(Cl)cc1: 0
Cc1nnc(-c2ccc3occ(-c4ccc(C(C)O)cc4)c3c2)o1 (stereo not drawn): 12
CCc1ccnc(/C=C/c2n[nH]c3cc(Sc4ccccc4C(=O)NC)ccc23)c1: 6
O=c1cc(N2CCOCC2)nc2n(Cc3cccc(Cl)c3Cl)c(C3CC3)nn12: 3
Cc1c(Cn2c(C)nn3c(=O)cc(N4CCOC(C)C4)nc23)cccc1C(F)(F)F (stereo not drawn): 0
COc1cc(Nc2nccc(N3CCC(NC(=O)c4cccc(NC(C)=O)c4)C3)n2)cc(OC)c1OC (stereo not drawn): 19
Cc1cn2c(=O)cc(N3CCOCC3)nc2n1Cc1cccc(Cl)c1Cl: 17
COc1cc2c(cc1OCCN1CCN(C)CC1)ncc1c3ccc(C#N)cc3[nH]c21: 51
CC(C)Oc1ccc2c(-c3ccnc(Nc4ccc(N5CCN(C)CC5)cc4)n3)cnn2n1: 71
CN1c2ccc(NCc3ccc(F)cc3)cc2-c2c(cnn2C)S1(=O)=O: 0
Cl.Oc1cccc(Nc2ccnc3cc(-c4ccncc4)ccc23)c1: 0
Fc1ccc(-c2ncn(CCCN3CCOCC3)c2-c2ccccn2)cc1: 18
